System: Human CCR8 (C-C chemokine receptor type 8) expressed on CHO-S cells (human, UniProt P51685 1-355)
Sequence (P51685 whole entry): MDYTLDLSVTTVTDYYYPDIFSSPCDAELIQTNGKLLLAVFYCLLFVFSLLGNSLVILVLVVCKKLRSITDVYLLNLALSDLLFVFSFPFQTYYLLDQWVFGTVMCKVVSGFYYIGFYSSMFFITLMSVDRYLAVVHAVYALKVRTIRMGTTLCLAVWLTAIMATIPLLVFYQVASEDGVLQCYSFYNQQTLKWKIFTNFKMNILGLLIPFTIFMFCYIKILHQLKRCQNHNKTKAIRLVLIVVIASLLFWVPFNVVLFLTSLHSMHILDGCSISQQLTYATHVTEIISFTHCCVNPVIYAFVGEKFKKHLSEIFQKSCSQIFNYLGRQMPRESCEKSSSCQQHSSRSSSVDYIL
Experimental Details: cell-based or functional assay
Listing of recorded ADCC (Fold Induction) by entry.
Readout Type: ADCC (Fold Induction) (fold)

binder="7B16.009 (CDR H3 alanine scan variant of 7-B16) (antibody, human IgG1, kappa, V domains shown) VH: EVQLVESGGGLVQPKGSLKLSCAASGFTFNTYAMNWVRQAPGKGLEWVARIRSKSNNYATYYADSVKDRFTISRDDSQSMLYLQMNNLKTEDTAMYYCVRGLLRYAFFDVWGAGTTVTVSS VL: DIVMTQAEPSVPVTPGESISISCRSSKSLLHSNGNTYLYWFLQRPGQSPQLLIYRMSNLASGVPDRFSGSGSGTAFTLRISRVEAEDVGVYYCMQHLEYPFTFGGGTKLEIKR" recorded_result=19.8
binder="7B16.006 (CDR H3 alanine scan variant of 7-B16) (antibody, human IgG1, kappa, V domains shown) VH: EVQLVESGGGLVQPKGSLKLSCAASGFTFNTYAMNWVRQAPGKGLEWVARIRSKSNNYATYYADSVKDRFTISRDDSQSMLYLQMNNLKTEDTAMYYCVRGLARYRFFDVWGAGTTVTVSS VL: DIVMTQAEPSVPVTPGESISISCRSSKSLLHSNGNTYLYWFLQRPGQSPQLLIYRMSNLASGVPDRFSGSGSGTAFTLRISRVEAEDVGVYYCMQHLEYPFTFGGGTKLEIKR" recorded_result=14.1
binder="7B16.013 (CDR H3 alanine scan variant of 7-B16) (antibody, human IgG1, kappa, V domains shown) VH: EVQLVESGGGLVQPKGSLKLSCAASGFTFNTYAMNWVRQAPGKGLEWVARIRSKSNNYATYYADSVKDRFTISRDDSQSMLYLQMNNLKTEDTAMYYCVRGLLRYRFFDAWGAGTTVTVSS VL: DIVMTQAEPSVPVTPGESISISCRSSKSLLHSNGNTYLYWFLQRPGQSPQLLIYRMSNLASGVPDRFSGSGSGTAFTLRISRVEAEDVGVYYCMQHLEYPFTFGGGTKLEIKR" recorded_result=25.9

Origin of the recorded values: patent US20260116987A1
